Test system: HOP-62
Assay: NCI60 antitumor screening
Format: cell-based, human
Details: 10 μM one-dose, Table 1
observed property: GI%

// worked examples, GI% included
N#Cc1c(-c2ccc(F)cc2)nc(SCc2ccc(F)cc2)nc1N1CCOCC1
75.65%
Cc1ccc(CSc2nc(-c3ccc(F)cc3)c(C#N)c(N3CCOCC3)n2)cc1
— (GI value > 70%)
N#Cc1c(-c2ccc(F)cc2)nc(SCc2ccc([N+](=O)[O-])cc2)nc1N1CCOCC1
— (GI value > 70%)
CN1CCN(c2nc(SCc3ccccc3)nc(-c3ccc(F)cc3)c2C#N)CC1
— (GI value > 70%)
N#Cc1c(-c2ccc(F)cc2)nc(SCc2ccc(F)cc2)[nH]c1=O
— (GI value > 70%)

Attention now turns to another entry.
What GI% appears in the records for this compound with HOP-62? CN1CCN(c2nc(SCc3ccc(F)cc3)nc(-c3ccc(F)cc3)c2C#N)CC1
— (GI value > 70%)

----------
Tested on: NCI-H322M
Assay: NCI60 antitumor screening
Assay type: cell-based, human
Details: 10 μM one-dose
observed property: GI%

N#Cc1c(-c2ccc(F)cc2)nc(SCc2ccc([N+](=O)[O-])cc2)[nH]c1=O
— (GI% < 10)
N#Cc1c(Cl)nc(SCc2ccc(F)cc2)nc1-c1ccc(F)cc1
— (GI% < 10)
Cc1ccc(CSc2nc(-c3ccc(F)cc3)c(C#N)c(=O)[nH]2)cc1
— (GI% < 10)
N#Cc1c(-c2ccc(F)cc2)nc(SCc2ccc(F)cc2)nc1N1CCOCC1
21.55%
Cc1ccc(CSc2nc(Cl)c(C#N)c(-c3ccc(F)cc3)n2)cc1
— (GI% < 10)

What does the record list as GI% for N#Cc1c(-c2ccc(F)cc2)nc(SCc2ccccc2)nc1N1CCOCC1 ?
— (GI% < 10)

What does the record list as GI% for N#Cc1c(-c2ccc(F)cc2)nc(SCc2ccc([N+](=O)[O-])cc2)nc1N1CCOCC1 ?
17.30%

What does the record list as GI% for N#Cc1c(Cl)nc(SCc2ccccc2)nc1-c1ccc(F)cc1 ?
— (GI% < 10)

What does the record list as GI% for N#Cc1c(Cl)nc(SCc2ccc([N+](=O)[O-])cc2)nc1-c1ccc(F)cc1 ?
13.28%

What does the record list as GI% for Cc1ccc(CSc2nc(-c3ccc(F)cc3)c(C#N)c(N3CCOCC3)n2)cc1 ?
— (GI% < 10)

----------
Test system: NCI-H23
Assay: NCI60 antitumor screening
Type: cell-based, human
Conditions: Homo sapiens; 10 μM single dose; NCI-H23 (non-small cell lung cancer); read-out: growth inhibition percent (GI%)
observed property: inhibition at 10 µM

// worked examples, inhibition at 10 µM included
Cc1ccc(CSc2nc(-c3ccc(F)cc3)c(C#N)c(N3CCN(c4ccccc4)CC3)n2)cc1 [4p]
< 10%
N#Cc1c(-c2ccc(F)cc2)nc(SCc2ccccc2)nc1N1CCNCC1 [4e]
> 100%
N#Cc1c(-c2ccc(F)cc2)nc(SCc2ccc([N+](=O)[O-])cc2)nc1N1CCNCC1 [4g]
< 10%

What inhibition at 10 µM appears in the records for this molecule with NCI-H23? N#Cc1c(-c2ccc(F)cc2)nc(SCc2ccc([N+](=O)[O-])cc2)nc1N1CCN(c2ccccc2)CC1 [4o]
< 10%

What inhibition at 10 µM appears in the records for this molecule with NCI-H23? N#Cc1c(-c2ccc(F)cc2)nc(SCc2ccc(F)cc2)nc1N1CCN(c2ccccc2)CC1 [4n]
< 10%

What inhibition at 10 µM appears in the records for this molecule with NCI-H23? CN1CCN(c2nc(SCc3ccc(F)cc3)nc(-c3ccc(F)cc3)c2C#N)CC1 [4j]
22.2%
